Data provenance: patent US9221875B2

- Assay Explanation: in vitro
- Format: cell-based
- Applied Conditions: mouse, RAW264.7 macrophage cells
Square brackets hold non-standard residues; d marks the D form. Peptide text beside a SMILES is read from it.
Readout Type: viability at 48 h

The reported viability at 48 h of the compound CC[C@@H](C)[C@@H](N)C(=O)N[C@H](CCCNC(=N)N)C(=O)N[C@@H](C(=O)N[C@H](CCCCN)C(=O)N[C@@H](C(=O)N[C@H](CCCNC(=N)N)C(=O)N[C@@H](C(=O)N[C@H](CCCCN)C(N)=O)[C@H](C)CC)[C@H](C)CC)[C@H](C)CC [IK8-all D, irikirik-NH2] (H-[dI][dR][dI][dK][dI][dR][dI][dK]-NH2; N-terminus assumed) was > 80%
